Value source: the Deep4Chem optical property database

assay: photoluminescence quantum yield (fraction); solvent given as SMILES; settings: in CC(C)=O
So basically, if photoluminescence quantum yield comes in under 0.03 it's fulfilled, and if it's 0.03 or more it's not fulfilled.

Compound	Assigned label
CN(C)c1ccc(C2=Nc3sc4cc(C(F)(F)F)ccc4[n+]3[B-](F)(F)O2)cc1	not fulfilled

Dear colleague, could you confirm whether photoluminescence quantum yield of CCCN(c1ccccc1)c1ccc2c(c1)C(CC)(CC)c1cc(/C=C/c3ccc(/C=C(\C#N)C(=O)O)s3)ccc1-2 falls below 0.03? Thanks.
not fulfilled

Dear colleague, could you confirm whether photoluminescence quantum yield of COc1ccc(C2=C3C(C)=CC(C)=[N+]3[B-](F)(F)n3c(/C=C/c4ccc(N(C)C)cc4)cc(C)c32)cc1 falls below 0.03? Thanks.
not fulfilled

Dear colleague, could you confirm whether photoluminescence quantum yield of Cn1cc(/C=C/C(=O)c2ccccc2)c2ccccc21 falls below 0.03? Thanks.
not fulfilled

Dear colleague, could you confirm whether photoluminescence quantum yield of Cc1nc2c(c[n+]1C)CN1C(=O)N([C@H]3O[C@@H](CO)[C@H](O)[C@@H]3O)C=CC1=N2 falls below 0.03? Thanks.
not fulfilled

Dear colleague, could you confirm whether photoluminescence quantum yield of CN(C)c1ccc(/C=C/c2nc3ccc(N(C)C)cc3oc2=O)cc1 falls below 0.03? Thanks.
not fulfilled

Dear colleague, could you confirm whether photoluminescence quantum yield of CN(C)CCN(Cc1c2ccccc2cc2ccccc12)c1ccc([N+](=O)[O-])cn1 falls below 0.03? Thanks.
fulfilled

Dear colleague, could you confirm whether photoluminescence quantum yield of CC1=C(C(C)(C)C)C(C)=[N+]2C1=C(C)c1c(C)c(C(C)(C)C)c(C)n1[B-]2(F)F falls below 0.03? Thanks.
not fulfilled

Dear colleague, could you confirm whether photoluminescence quantum yield of Cc1ccc(OCc2cc(=O)oc3c2ccc2ccccc23)cc1 falls below 0.03? Thanks.
not fulfilled

###

assay: photoluminescence quantum yield (fraction); solvent given as SMILES; conditions: in CC#N
Measurement label: photoluminescence quantum yield
Lab note: jot the number down without any unit.

# example entries with known answers
Compound	photoluminescence quantum yield
O=C1Cc2ccc(cc2)CC(=O)Cc2ccc(c3nsnc23)C1	0.45
CC(=O)O[B-]1(OC(C)=O)OC(/C=C/c2ccc(C)cc2)=CC(/C=C/c2ccc(C)cc2)=[O+]1	0.55
CCOC(=O)c1c2c3c(ccc(Br)c3c3cc4c(cc13)[Si](C)(C)O[Si]4(C)C)N(C)C2=O	0.31
COC1(OC)C2(Cl)c3nc4cc(-c5cccs5)ccc4nc3C1(Cl)C1C[C@H]3[C@@H](CC12)C1(Cl)c2nc4ccc(-c5cccs5)cc4nc2C3(Cl)C1(OC)OC (stereo partly drawn)	0.57
Cc1ccc(C#Cc2cc3ccccc3oc2=O)cc1	0.73
O=C1C2=C(O[B-](F)(F)[n+]3c2ccc2ccccc23)c2cccc3c(N4CCOCC4)ccc1c23	0.47
COC(=O)C[C@H](Cc1c[nH]c2ccccc12)NC(=O)[C@H](CC(=O)N[C@@H](CC1=CCc2ccccc21)C(=O)OC)NC(=O)[C@H](Cc1c[nH]c2ccccc12)NC(=O)OC(C)(C)C	0.26

Attention now shifts to the item below.
What does the record list as photoluminescence quantum yield for CCC1=C(C)C2=Cc3c4ccccc4c4n3[B-](c3ccncc3)(Oc3ccccc3-4)[N+]2=C1C (stereo not drawn) ?
0.73
